assay: The drug is tested on WLS-370 corresponding to human gut metagenome with ENA study accession number: PRJEB37062 and ENA sample accession number: ERS12561793 for biotransformation under anaerobic condition. The drug concentrations were measured over 9 timepoints collected between 0 and 24 hours of incubation by liquid-chromatography-coupled mass spectrometry (LC–MS); conditions: 2 µM; also: call rule not given here
observable: Bacterial Biotransformation

>>> recorded_value("COc1cc(NC(C)CCCN)c2ncccc2c1.O=P(O)(O)O.O=P(O)(O)O (stereo not given) [PRIMAQUINE PHOSPHATE]")
"Compound NOT metabolized"
>>> recorded_value("CC(=O)OCC(=O)NCCCOc1cccc(CN2CCCCC2)c1 [ROXATIDINE ACETATE]")
"Compound metabolized"
>>> recorded_value("CCOC(=O)[C@H](CCc1ccccc1)N[C@@H](C)C(=O)N1Cc2ccccc2C[C@H]1C(=O)O")
"Compound metabolized"
>>> recorded_value("C[N+]12CCC(CC1)C(OC(=O)C(O)(c1ccccc1)c1ccccc1)C2.[Br-] (stereo not given) [CLIDINIUM BROMIDE]")
"Compound metabolized"

Proceed to the following item.
Inquiry: For the molecule CN1CCN2c3ccccc3Cc3ccccc3C2C1 (stereo not given) , give its measured Bacterial Biotransformation value.
Reply text: Compound NOT metabolized

---

assay: The drug is tested on WLS-069 corresponding to human gut metagenome with ENA study accession number: PRJEB37062 and ENA sample accession number: ERS12561748 for biotransformation under anaerobic condition. The drug concentrations were measured over 9 timepoints collected between 0 and 24 hours of incubation by liquid-chromatography-coupled mass spectrometry (LC–MS); conditions: 2 µM
observable: Bacterial Biotransformation

Sample records with Bacterial Biotransformation:
>>> recorded_value("COc1cc(C(=O)NCc2ccc(OCCN(C)C)cc2)cc(OC)c1OC [TRIMETHOBENZAMIDE]")
"Compound NOT metabolized"
>>> recorded_value("CC(C)[C@H]1CC[C@H](C(=O)N[C@H](Cc2ccccc2)C(=O)O)CC1 [NATEGLINIDE]")
"Compound metabolized"
>>> recorded_value("CCOc1ccc2nc(S(N)(=O)=O)sc2c1 [ETHOXZOLAMIDE]")
"Compound NOT metabolized"
>>> recorded_value("Cc1nc(Nc2ncc(C(=O)Nc3c(C)cccc3Cl)s2)cc(N2CCN(CCO)CC2)n1 [DASATINIB ANHYDROUS]")
"Compound NOT metabolized"
>>> recorded_value("O=C(O)c1cc(/N=N/c2ccc(S(=O)(=O)Nc3ccccn3)cc2)ccc1O")
"Compound metabolized"

Inquiry: For the compound CC(C)(C)NC[C@H](O)COc1nsnc1N1CCOCC1.O=C(O)/C=C\C(=O)O [TIMOLOL MALEATE] , give its measured Bacterial Biotransformation value.
Reply text: Compound NOT metabolized

Inquiry: For the compound CN(C)C(=O)Oc1cc(OC(=O)N(C)C)cc(C(O)CNC(C)(C)C)c1 (configuration not stated) , give its measured Bacterial Biotransformation value.
Reply text: Compound NOT metabolized

Inquiry: For the compound CNCC[C@H](Oc1cccc2ccccc12)c1cccs1 , give its measured Bacterial Biotransformation value.
Reply text: Compound NOT metabolized

Inquiry: For the compound O=C1CC2(CCCC2)CC(=O)N1CCCCN1CCN(c2ncccn2)CC1 , give its measured Bacterial Biotransformation value.
Reply text: Compound metabolized

Inquiry: For the compound Nc1nc(N)nc(-c2cc(Cl)ccc2Cl)n1.O=C(O)/C=C\C(=O)O [IRSOGLADINE MALEATE] , give its measured Bacterial Biotransformation value.
Reply text: Compound NOT metabolized

Inquiry: For the compound CCc1cccc2c3c([nH]c12)C(CC)(CC(=O)O)OCC3 (configuration not stated) , give its measured Bacterial Biotransformation value.
Reply text: Compound metabolized

Inquiry: For the compound CC[C@@]1(O)C(=O)OCc2c1cc1n(c2=O)Cc2cc3c(CN(C)C)c(O)ccc3nc2-1 , give its measured Bacterial Biotransformation value.
Reply text: Compound NOT metabolized

Inquiry: For the compound COc1ccccc1OCCNCC(O)COc1cccc2[nH]c3ccccc3c12 (configuration not stated) , give its measured Bacterial Biotransformation value.
Reply text: Compound metabolized

Inquiry: For the compound CC#C[C@]1(O)CC[C@H]2[C@@H]3CCC4=CC(=O)CCC4=C3[C@@H](c3ccc(N(C)C)cc3)C[C@@]21C , give its measured Bacterial Biotransformation value.
Reply text: Compound metabolized

Inquiry: For the compound Br.COc1ccc2c(c1)[C@]13CCCC[C@@H]1[C@H](C2)N(C)CC3.O [DEXTROMETHORPHAN HYDROBROMIDE] , give its measured Bacterial Biotransformation value.
Reply text: Compound metabolized

Inquiry: For the compound OC(c1cc(C(F)(F)F)nc2c(C(F)(F)F)cccc12)C1CCCCN1 (configuration not stated) , give its measured Bacterial Biotransformation value.
Reply text: Compound metabolized

Inquiry: For the compound O=C(O)CCC(=O)O.O=C(O[C@H]1CN2CCC1CC2)N1CCc2ccccc2[C@@H]1c1ccccc1 [SOLIFENACIN SUCCINATE] , give its measured Bacterial Biotransformation value.
Reply text: Compound metabolized

---

test: The drug is tested on WLS-077 corresponding to human gut metagenome with ENA study accession number: PRJEB37062 and ENA sample accession number: ERS12561750 for biotransformation under anaerobic condition. The drug concentrations were measured over 9 timepoints collected between 0 and 24 hours of incubation by liquid-chromatography-coupled mass spectrometry (LC–MS); settings: 2 µM
observable: Bacterial Biotransformation

Sample records with Bacterial Biotransformation:
>>> recorded_value("c1ccc2[nH]c(-c3cscn3)nc2c1")
"Compound NOT metabolized"
>>> recorded_value("Cc1cc(C)cc(OCC2CNC(=O)O2)c1 (centres undefined)")
"Compound metabolized"
>>> recorded_value("COc1ccc2c(c1)c(CC(=O)O)c(C)n2C(=O)c1ccc(Cl)cc1")
"Compound metabolized"
>>> recorded_value("Nc1nc(N)nc(-c2cc(Cl)ccc2Cl)n1.O=C(O)/C=C\\C(=O)O [IRSOGLADINE MALEATE]")
"Compound NOT metabolized"
>>> recorded_value("CC#C[C@]1(O)CC[C@H]2[C@@H]3CCC4=CC(=O)CCC4=C3[C@@H](c3ccc(N(C)C)cc3)C[C@@]21C")
"Compound NOT metabolized"
>>> recorded_value("O=C1CC2(CCCC2)CC(=O)N1CCCCN1CCN(c2ncccn2)CC1")
"Compound NOT metabolized"
>>> recorded_value("COC1=C(OC)C(=O)C(CCCCCCCCCCO)=C(C)C1=O")
"Compound metabolized"
>>> recorded_value("CC(NC(C)(C)C)C(=O)c1cccc(Cl)c1 (centres undefined)")
"Compound NOT metabolized"

Proceed to the following item.
Inquiry: For the compound COc1ccc([C@@H]2Sc3ccccc3N(CCN(C)C)C(=O)[C@@H]2OC(C)=O)cc1 , give its measured Bacterial Biotransformation value.
Reply text: Compound NOT metabolized

---

experiment: The drug is tested on Z-008 corresponding to metagenome with ENA study accession number: PRJEB37062 and ENA sample accession number: ERS12561808 for biotransformation under anaerobic condition. The drug concentrations were measured over 9 timepoints collected between 0 and 24 hours of incubation by liquid-chromatography-coupled mass spectrometry (LC–MS); conditions: 2 µM
observable: Bacterial Biotransformation

Sample records with Bacterial Biotransformation:
>>> recorded_value("COc1cc(NC(C)CCCN)c2ncccc2c1.O=P(O)(O)O.O=P(O)(O)O (stereo not given) [PRIMAQUINE PHOSPHATE]")
"Compound NOT metabolized"
>>> recorded_value("CC(=O)OCC(=O)NCCCOc1cccc(CN2CCCCC2)c1 [ROXATIDINE ACETATE]")
"Compound metabolized"
>>> recorded_value("COc1ccc(CN2CCNCC2)c(OC)c1OC.Cl.Cl [TRIMETAZIDINE DIHYDROCHLORIDE]")
"Compound NOT metabolized"
>>> recorded_value("CC(=O)OCC(CCn1cnc2cnc(N)nc21)COC(C)=O")
"Compound metabolized"
>>> recorded_value("CN(C)CCOC(C)(c1ccccc1)c1ccccn1.O=C(O)CCC(=O)O (stereo not given) [DOXYLAMINE SUCCINATE]")
"Compound NOT metabolized"

Inquiry: For the compound CC(=O)O[C@]1(C(C)=O)CC[C@H]2[C@@H]3C=C(C)C4=CC(=O)CC[C@]4(C)[C@H]3CC[C@@]21C [MEGESTROL ACETATE] , give its measured Bacterial Biotransformation value.
Reply text: Compound NOT metabolized

Inquiry: For the compound C=CC[C@@H]1/C=C(\C)C[C@H](C)C[C@H](OC)[C@H]2O[C@@](O)(C(=O)C(=O)N3CCCC[C@H]3C(=O)O[C@H](/C(C)=C/[C@@H]3CC[C@@H](O)[C@H](OC)C3)[C@H](C)[C@@H](O)CC1=O)[C@H](C)C[C@@H]2OC.O , give its measured Bacterial Biotransformation value.
Reply text: Compound NOT metabolized

---

test: The drug is tested on WLS-010 corresponding to human gut metagenome with ENA study accession number: PRJEB37062 and ENA sample accession number: ERS12561743 for biotransformation under anaerobic condition. The drug concentrations were measured over 9 timepoints collected between 0 and 24 hours of incubation by liquid-chromatography-coupled mass spectrometry (LC–MS); conditions: 2 µM
observable: Bacterial Biotransformation

>>> recorded_value("C[C@]12C=CC(=O)C=C1CC[C@@H]1[C@@H]2C(=O)C[C@@]2(C)[C@H]1CC[C@]2(O)C(=O)CO")
"Compound metabolized"
>>> recorded_value("CC(N)C12CC3CC(CC(C3)C1)C2 (centres undefined)")
"Compound NOT metabolized"
>>> recorded_value("N#Cc1ccc2[nH]cc(CCCCN3CCN(c4ccc5oc(C(N)=O)cc5c4)CC3)c2c1")
"Compound metabolized"
>>> recorded_value("CN1CCN2c3ccccc3Cc3ccccc3C2C1 (centres undefined)")
"Compound NOT metabolized"

Inquiry: For the compound COc1ccc2c(c1)c(CC(=O)O)c(C)n2C(=O)c1ccc(Cl)cc1 , give its measured Bacterial Biotransformation value.
Reply text: Compound metabolized

Inquiry: For the compound CCCCCNC(=N)N/N=C/c1c[nH]c2ccc(OC)cc12.O=C(O)/C=C\C(=O)O [TEGASEROD MALEATE] , give its measured Bacterial Biotransformation value.
Reply text: Compound NOT metabolized
